Assay Text: Cytotoxicity counterscreen for inhibitors of SARS-CoV-2 cell entry (AID 1645845); also: nearly all actives have a fitted effect of over 50% in size
Condition Set: cell viability (SARS-CoV-2 entry assay cells); series mostly up to 57.1 µM
Records with an inconclusive call do not appear. Calls of active or inactive are those of the source. Calls follow the shape of the full dose curve.
Answer with one of the outcomes t = active, f = inactive

Examples with answers:
CS(=O)(=O)N(Cc1ccco1)CC(O)Cn1c2ccccc2c2ccccc21 (centres undefined)
f
CN1CCC(COc2cnc(-c3cccc(Cn4nc(-c5cccc(C#N)c5)ccc4=O)c3)nc2)CC1
f
Cc1cncc2cccc(S(=O)(=O)N3CCCN(C(=O)CN)C[C@@H]3C)c12
f
CCN1CCN(c2ccc(Nc3cc(N(C)C(=O)Nc4c(Cl)c(OC)cc(OC)c4Cl)ncn3)cc2)CC1
f
CCN(CC)Cc1ccc2cc(COC(=O)Nc3ccc(C(=O)NO)cc3)ccc2c1
t
CN1CC[C@@H](c2c(O)cc(O)c3c(=O)cc(-c4ccc(C(F)(F)F)cc4Cl)oc23)[C@@H]1CO
f
NC(=O)c1cc[n+](CC2=C(C(=O)O)N3C(=O)[C@@H](NC(=O)[C@@H](c4ccccc4)S(=O)(=O)[O-])[C@H]3SC2)cc1
f
O=c1c(O)c(-c2ccc(O)cc2O)oc2cc(O)cc(O)c12
f

Here is the next item to consider.
Which outcome was entered for the molecule CS(=O)(=O)c1ccc(C2=C(c3ccccc3)C(=O)OC2)cc1 in this test?
f
